The reported measurements were obtained from the supplement of paper PMC5998384.

- System: HeLa Kyoto;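 further: synchronized HeLa Kyoto cells, proteins quantified by TMT10plex mass spectrometry, three biological replicates, mitosis taken 0.5 h after nocodazole release, G1/S directly after double thymidine block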
- TEST: thermal stability score vs G1/S (z-score of summed log2 fold changes over temperatures); higher = more thermally stable than in G1/S
- MEASUREMENT_CONDITIONS: cell cycle stage: early G1 (4.5 h after nocodazole release)
MEASUREMENT_TYPE: thermal stability score

* MAALGGDGLRLLSVSRPERPPESAALGGLGPGLCCWVSVFSCLSLACSYVGSLYVWKSELPRDHPAVIKRRFTSVLVVSSLSPLCVLLWRELTGIQPGTSLLTLMGFRLEGIFPAALLPLLLTMILFLGPLMQLSMDCPCDLADGLKVVLAPRSWARCLTDMRWLRNQVIAPLTEELVFRACMLPMLAPCMGLGPAVFTCPLFFGVAHFHHIIEQLRFRQSSVGNIFLSAAFQFSYTAVFGAYTAFLFIRTGHLIGPVLCHSFCNYMGFPAVCAALEHPQRRPLLAGYALGVGLFLLLLQPLTDPKLYGSLPLCVLLERAGDSEAPLCS [RCE1] | -0.209
* MASRGRRPEHGGPPELFYDETEARKYVRNSRMIDIQTRMAGRALELLYLPENKPCYLLDIGCGTGLSGSYLSDEGHYWVGLDISPAMLDEAVDREIEGDLLLGDMGQGIPFKPGTFDGCISISAVQWLCNANKKSENPAKRLYCFFASLFSVLVRGSRAVLQLYPENSEQLELITTQATKAGFSGGMVVDYPNSAKAKKFYLCLFSGPSTFIPEGLSENQDEVEPRESVFTNERFPLRMSRRGMVRKSRAWVLEKKERHRRQGREVRPDTQYTGRKRKPRF [WBSCR22] | 1.09
* MAGKKNVLSSLAVYAEDSEPESDGEAGIEAVGSAAEEKGGLVSDAYGEDDFSRLGGDEDGYEEEEDENSRQSEDDDSETEKPEADDPKDNTEAEKRDPQELVASFSERVRNMSPDEIKIPPEPPGRCSNHLQDKIQKLYERKIKEGMDMNYIIQRKKEFRNPSIYEKLIQFCAIDELGTNYPKDMFDPHGWSEDSYYEALAKAQKIEMDKLEKAKKERTKIEFVTGTKKGTTTNATSTTTTTASTAVADAQKRKSKWDSAIPVTTIAQPTILTTTATLPAVVTVTTSASGSKTTVISAVGTIVKKAKQ [SAP30BP] | 0.846
* MAALGEPVRLERDICRAIELLEKLQRSGEVPPQKLQALQRVLQSEFCNAVREVYEHVYETVDISSSPEVRANATAKATVAAFAASEGHSHPRVVELPKTEEGLGFNIMGGKEQNSPIYISRIIPGGIADRHGGLKRGDQLLSVNGVSVEGEHHEKAVELLKAAQGKVKLVVRYTPKVLEEMESRFEKMRSAKRRQQT [LIN7C] | -0.659
* MAVATAAAVLAALGGALWLAARRFVGPRVQRLRRGGDPGLMHGKTVLITGANSGLGRATAAELLRLGARVIMGCRDRARAEEAAGQLRRELRQAAECGPEPGVSGVGELIVRELDLASLRSVRAFCQEMLQEEPRLDVLINNAGIFQCPYMKTEDGFEMQFGVNHLGHFLLTNLLLGLLKSSAPSRIVVVSSKLYKYGDINFDDLNSEQSYNKSFCYSRSKLANILFTRELARRLEGTNVTVNVLHPGIVRTNLGRHIHIPLLVKPLFNLVSWAFFKTPVEGAQTSIYLASSPEVEGVSGRYFGDCKEEELLPKAMDESVARKLWDISEVMVGLLK [RDH14] | 0.98
* MKKVRLKELESRLQQVDGFEKPKLLLEQYPTRPHIAACMLYTIHNTYDDIENKVVADLGCGCGVLSIGTAMLGAGLCVGFDIDEDALEIFNRNAEEFELTNIDMVQCDVCLLSNRMSKSFDTVIMNPPFGTKNNKGTDMAFLKTALEMARTAVYSLHKSSTREHVQKKAAEWKIKIDIIAELRYDLPASYKFHKKKSVDIEVDLIRFSF [METTL5] | -0.685
* MRLSWFRVLTVLSICLSAVATATGAEGKRKLQIGVKKRVDHCPIKSRKGDVLHMHYTGKLEDGTEFDSSLPQNQPFVFSLGTGQVIKGWDQGLLGMCEGEKRKLVIPSELGYGERGAPPKIPGGATLVFEVELLKIERRTEL [FKBP2] | 1.33
* MLARAARGTGALLLRGSLLASGRAPRRASSGLPRNTVVLFVPQQEAWVVERMGRFHRILEPGLNILIPVLDRIRYVQSLKEIVINVPEQSAVTLDNVTLQIDGVLYLRIMDPYKASYGVEDPEYAVTQLAQTTMRSELGKLSLDKVFRERESLNASIVDAINQAADCWGIRCLRYEIKDIHVPPRVKESMQMQVEAERRKRATVLESEGTRESAINVAEGKKQAQILASEAEKAEQINQAAGEASAVLAKAKAKAEAIRILAAALTQHNGDAAASLTVAEQYVSAFSKLAKDSNTILLPSNPGDVTSMVAQAMGVYGALTKAPVPGTPDSLSSGSSRDVQGTDASLDEELDRVKMS [STOML2] | -3.41
* MRLLPRLLLLLLLVFPATVLFRGGPRGLLAVAQDLTEDEETVEDSIIEDEDDEAEVEEDEPTDLVEDKEEEDVSGEPEASPSADTTILFVKGEDFPANNIVKFLVGFTNKGTEDFIVESLDASFRYPQDYQFYIQNFTALPLNTVVPPQRQATFEYSFIPAEPMGGRPFGLVINLNYKDLNGNVFQDAVFNQTVTVIEREDGLDGETIFMYMFLAGLGLLVIVGLHQLLESRKRKRPIQKVEMGTSSQNDVDMSWIPQETLNQINKASPRRLPRKRAQKRSVGSDE [SSR1] | 0.9
* MAPSLWKGLVGIGLFALAHAAFSAAQHRSYMRLTEKEDESLPIDIVLQTLLAFAVTCYGIVHIAGEFKDMDATSELKNKTFDTLRNHPSFYVFNHRGRVLFRPSDTANSSNQDALSSNTSLKLRKLESLRR [MMGT1] | -0.869
* MSCESSMVLGYWDIRGLAHAIRLLLEFTDTSYEEKRYTCGEAPDYDRSQWLDVKFKLDLDFPNLPYLLDGKNKITQSNAILRYIARKHNMCGETEEEKIRVDIIENQVMDFRTQLIRLCYSSDHEKLKPQYLEELPGQLKQFSMFLGKFSWFAGEKLTFVDFLTYDILDQNRIFDPKCLDEFPNLKAFMCRFEALEKIAAYLQSDQFCKMPINNKMAQWGNKPVC [GSTM3] | 1.24
